What inhibition at 1.5 h, 10 µM was measured for each of the following?
Tested on: G-actin polymerization
Assay: Inhibition of KMEI-induced pyrene-labelled G-actin polymerization (unknown origin) at 10 uM preincubated for 1 min followed by KMEI addition and measured at 15 secs interval for 90 mins by spectrofluorimetric analysis relative to control
Settings: human, time 91 min

Lab book: inhibition at 1.5 h, 10 µM of COc1ccc(CN2C(=O)SC[C@H]2C2(OC)CC(OC(=O)c3ccccc3I)CCO2)cc1 (mixture of isomers) noted as < 10%

Lab book: inhibition at 1.5 h, 10 µM of C/C1=C/C(=O)O[C@@H]2C[C@@H](CC[C@H](C)/C=C\CC1)O[C@@](O)([C@@H]1CSC(=O)N1)C2 [LATRUNCULIN B] noted as 100%

Lab book: inhibition at 1.5 h, 10 µM of COc1ccc(CN2C(=O)SC[C@H]2C2(OC)CC(OC(=O)c3ccccc3-c3cccs3)CCO2)cc1 (mixture of isomers) noted as < 10%

Lab book: inhibition at 1.5 h, 10 µM of COc1ccc(CN2C(=O)SC[C@H]2C2(OC)CC(OC(=O)c3ccccc3-c3cccc4ccccc34)CCO2)cc1 (mixture of isomers) noted as < 10%

Lab book: inhibition at 1.5 h, 10 µM of COc1ccc(CN2C(=O)SC[C@H]2C2(OC)CC(OC(=O)c3ccccc3C3=CCCCC3)CCO2)cc1 (mixture of isomers) noted as < 10%

----------
What CC50 was measured for each of the following?
System: HepG2
Assay: Cytotoxicity against human HepG2 cells assessed as reduction in cell viability incubated for 24 hrs by resazurin staining based assay
Conditions: hepg2, 24 h
Form entry: value (µM) — number only.

Lab book: CC50 of COc1ccc(CN2C(=O)SC[C@H]2C2(OC)CC(OC(=O)c3ccccc3C3=CCCCC3)CCO2)cc1 (mixture of isomers) noted as 123

Lab book: CC50 of COc1ccc(CN2C(=O)SC[C@H]2C2(OC)CC(OC(=O)c3ccccc3-c3cccc4ccccc34)CCO2)cc1 (mixture of isomers) noted as 90

Lab book: CC50 of CCCCC(=O)OC1CCOC(OC)([C@@H]2CSC(=O)N2Cc2ccc(OC)cc2)C1 (mixture of isomers) noted as 111

----------
What inhibition at 1.5 h, 100 µM was measured for each of the following?
System: G-actin polymerization
Assay: Inhibition of KMEI-induced pyrene-labelled G-actin polymerization (unknown origin) at 100 uM preincubated for 1 min followed by KMEI addition and measured at 15 secs interval for 90 mins by spectrofluorimetric analysis relative to control
Settings: human, time 91 min

The compound COc1ccc(CN2C(=O)SC[C@H]2C2(OC)CC(OC(=O)c3ccccc3C3=CCCCC3)CCO2)cc1 (mixture of isomers) , tested on G-actin polymerization, showed inhibition at 1.5 h, 100 µM of < 10%

The compound COc1ccc(CN2C(=O)SC[C@H]2C2(OC)CC(OC(=O)c3ccccc3-c3cccc4ccccc34)CCO2)cc1 (mixture of isomers) , tested on G-actin polymerization, showed inhibition at 1.5 h, 100 µM of < 10%

The compound COc1ccc(CN2C(=O)SC[C@H]2C2(OC)CC(OC(=O)c3ccccc3I)CCO2)cc1 (mixture of isomers) , tested on G-actin polymerization, showed inhibition at 1.5 h, 100 µM of < 10%

The compound COc1ccc(CN2C(=O)SC[C@H]2C2(OC)CC(OC(=O)c3ccccc3-c3cccs3)CCO2)cc1 (mixture of isomers) , tested on G-actin polymerization, showed inhibition at 1.5 h, 100 µM of < 10%

The compound C/C1=C/C(=O)O[C@@H]2C[C@@H](CC[C@H](C)/C=C\CC1)O[C@@](O)([C@@H]1CSC(=O)N1)C2 [LATRUNCULIN B] , tested on G-actin polymerization, showed inhibition at 1.5 h, 100 µM of 100%

----------
Assay: Selectivity index, ratio of CC50 for cytotoxicity against human HepG2 cells to EC50 for inhibition of actin polymerisation in trophozoite-stage of plasmodium falciparum
Assay type: toxicity, cell-based
Settings: read-out: Ratio CC50/EC50
What selectivity ratio was measured for each of the following?
I only need the number, thanks.

Lab book: selectivity ratio of COc1ccc(CN2C(=O)SC[C@H]2C2(OC)CC(OC(=O)c3ccccc3-c3cccc4ccccc34)CCO2)cc1 (mixture of isomers) noted as 15

Lab book: selectivity ratio of COc1ccc(CN2C(=O)SC[C@H]2C2(OC)CC(OC(=O)c3ccccc3C3=CCCCC3)CCO2)cc1 (mixture of isomers) noted as 15

Lab book: selectivity ratio of CCCCC(=O)OC1CCOC(OC)([C@@H]2CSC(=O)N2Cc2ccc(OC)cc2)C1 (mixture of isomers) noted as 1
